# TARGET_OR_TEST_SYSTEM: Plk-1 (Homo sapiens)
# Construct: Recombinant fusion protein consisting of GST and Plk (kinase domain 33-345); MW 36 kDa; GST; made in house; host or cells: insect cells (Hi5)
# Sequence (P53350 33-345): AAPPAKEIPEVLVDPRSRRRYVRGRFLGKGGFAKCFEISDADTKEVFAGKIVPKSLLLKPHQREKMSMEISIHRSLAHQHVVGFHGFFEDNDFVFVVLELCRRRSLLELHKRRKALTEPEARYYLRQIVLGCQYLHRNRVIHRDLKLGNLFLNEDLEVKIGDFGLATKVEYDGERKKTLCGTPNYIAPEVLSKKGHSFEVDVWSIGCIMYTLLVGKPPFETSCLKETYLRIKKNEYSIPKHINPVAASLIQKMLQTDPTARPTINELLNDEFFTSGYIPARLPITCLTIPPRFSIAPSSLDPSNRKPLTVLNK
# ASSAY_SUMMARY: Plk-1 enzyme assay (indirect HTRF kinase assay)
# Type: biochemical
# RUN_PARAMETERS: 10 μM ATP (low ATP concentration); read-out: IC50 [Plk-1] (10 μM ATP)
Each record is given fulfilled if its reported IC50 is strictly below 10 nM. Records at or above 10 nM are given not fulfilled.

molecule=CCc1cc(C(=O)NC2CC2)cnc1Nc1cc2c(cn1)N(C)C(=O)[C@@H](CC)N2C1CCCC1 target_or_test_system="Plk-1 (Homo sapiens)" discrete_label=fulfilled
molecule=CC[C@@H]1C(=O)N(C)c2cnc(Nc3ncc(C(=O)NC4CCN(C)CC4)cc3OC)cc2N1C1CCCC1 target_or_test_system="Plk-1 (Homo sapiens)" discrete_label="not fulfilled"
molecule="COc1cc(C(=O)NC2CC2)cnc1Nc1cc2c(cn1)N(C)C(=O)C(C)N2C1CCCC1 (stereo not shown)" target_or_test_system="Plk-1 (Homo sapiens)" discrete_label="not fulfilled"
molecule=CC[C@@H]1C(=O)N(C)c2cnc(Nc3ncc(C(=O)NCCOC)cc3OC)cc2N1C1CCCC1 target_or_test_system="Plk-1 (Homo sapiens)" discrete_label=fulfilled
molecule=CC[C@@H]1C(=O)N(C)c2cnc(Nc3ncc(C(=O)NC4CC4)cc3C)cc2N1C1CCCC1 target_or_test_system="Plk-1 (Homo sapiens)" discrete_label=fulfilled
molecule=CC[C@@H]1C(=O)N(C)c2cnc(Nc3ncc(C(=O)NC4CC4)cc3OC)cc2N1C1CCCC1 target_or_test_system="Plk-1 (Homo sapiens)" discrete_label=fulfilled
molecule=CC[C@@H]1C(=O)N(C)c2cnc(Nc3ncc(C(=O)NCC(F)(F)F)cc3OC)cc2N1C1CCCC1 target_or_test_system="Plk-1 (Homo sapiens)" discrete_label="not fulfilled"
molecule=CC[C@@H]1C(=O)N(C)c2cnc(Nc3ncc(C(=O)N[C@@H]4CCCCNC4=O)cc3C)cc2N1C1CCCC1 target_or_test_system="Plk-1 (Homo sapiens)" discrete_label="not fulfilled"
molecule=COc1cc(C(=O)NC2CC2)cnc1Nc1cc2c(cn1)N(C)C(=O)[C@@H](C)N2C1CCCC1 target_or_test_system="Plk-1 (Homo sapiens)" discrete_label="not fulfilled"
molecule=CC[C@@H]1C(=O)N(C)c2cnc(Nc3ncc(C(=O)NC4CCOCC4)cc3C)cc2N1C1CCCC1 target_or_test_system="Plk-1 (Homo sapiens)" discrete_label=fulfilled

meta.source: patent US20160272635A1
